Numbers sourced from ChEMBL document CHEMBL1961873.

Target: Platelet-derived growth factor receptor alpha (Homo sapiens)
Details: at 0.1 µM
Description: GSK_PKIS: PDGFRA mean inhibition at 0.1 uM [Nanosyn]
Decision: inhibition >= 10% yields yes (1), all other cases yield no (0).

Some entries whose results are on file:
-- ask Given Fc1ccc(-c2ncn(C3CCNCC3)c2-c2ccnc(Oc3ccc(Oc4ccccc4)cc3)n2)cc1 , state whether its inhibition is at least 10%.
-- reply no (0)

-- ask Given CN(C)CCCNc1nccc(-c2c(-c3ccc(F)cc3)nn3cc(C(F)(F)F)ccc23)n1 , state whether its inhibition is at least 10%.
-- reply yes (1)

-- ask Given O=C(Nc1n[nH]c2nc(-c3ccc(O)cc3)c(Br)cc12)C1CC1 , state whether its inhibition is at least 10%.
-- reply yes (1)

-- ask Given COc1ccc2ncn(-c3cc(O[C@H](C)c4ccccc4Cl)c(C(N)=O)s3)c2c1 , state whether its inhibition is at least 10%.
-- reply yes (1)

-- ask Given Fc1ccc(-c2nc3n(c2-c2ccncc2)CCS3)cc1 , state whether its inhibition is at least 10%.
-- reply no (0)

-- ask Given Fc1ccc(-c2ncn(CCCN3CCOCC3)c2-c2ccncc2)cc1 , state whether its inhibition is at least 10%.
-- reply no (0)

-- ask Given O=C1Nc2ccc(I)cc2C1=Cc1cc(Br)c(O)c(Br)c1 , state whether its inhibition is at least 10%.
-- reply no (0)

-- ask Given NS(=O)(=O)c1ccc(N/N=C2\C(=O)Nc3ccc(C(=O)NCCCn4ccnc4)cc32)cc1 , state whether its inhibition is at least 10%.
-- reply yes (1)

-- ask Given Clc1ccc(CNc2nccc(-c3cnn4ncccc34)n2)cc1 , state whether its inhibition is at least 10%.
-- reply no (0)

Next:
-- ask Given NS(=O)(=O)c1ccc(N/N=C2\C(=O)Nc3ccc(-c4cnco4)cc32)cc1 , state whether its inhibition is at least 10%.
-- reply yes (1)

====

Tested on: Tyrosine-protein kinase ABL1 (Homo sapiens), P00519 [H396P]
Details: at 0.1 µM
MEASURE: inhibition

Past entries and their recorded results:
-- ask Recorded inhibition of CCS(=O)(=O)c1ccc(OC)c(Nc2ncc(-c3ccccc3Cl)o2)c1 , please.
-- reply 5.27%

-- ask Recorded inhibition of CCc1nccc2c1nc(-c1nonc1N)n2CC , please.
-- reply 1.08%

Next:
-- ask Recorded inhibition of CN1CCN(CCCNc2nc3ccc(Oc4ccc(NC(=O)Nc5cc(C(F)(F)F)ccc5F)cc4)cc3[nH]2)CC1 , please.
-- reply 0.89%

-- ask Recorded inhibition of Cc1ccc(C(=O)NC2CCC2)cc1-c1ccc(C(=O)NCC2CC2)cc1 , please.
-- reply 1.26%

-- ask Recorded inhibition of CN(C)CCOc1ccc(-c2cc(-c3ccc4c(c3)CCC4=NO)c(-c3ccncc3)o2)cc1 , please.
-- reply 1.96%

-- ask Recorded inhibition of O=C(Nc1n[nH]c2nc(-c3ccc(O)cc3)c(Br)cc12)C1CC1 , please.
-- reply 38.5%

====

Target: Sphingosine kinase 1 (Homo sapiens) (UniProt Q9NYA1);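 also: mean SPHK1 inhibition value reported from the GSK PKIS kinase panel screen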
Sequence (Q9NYA1 whole entry): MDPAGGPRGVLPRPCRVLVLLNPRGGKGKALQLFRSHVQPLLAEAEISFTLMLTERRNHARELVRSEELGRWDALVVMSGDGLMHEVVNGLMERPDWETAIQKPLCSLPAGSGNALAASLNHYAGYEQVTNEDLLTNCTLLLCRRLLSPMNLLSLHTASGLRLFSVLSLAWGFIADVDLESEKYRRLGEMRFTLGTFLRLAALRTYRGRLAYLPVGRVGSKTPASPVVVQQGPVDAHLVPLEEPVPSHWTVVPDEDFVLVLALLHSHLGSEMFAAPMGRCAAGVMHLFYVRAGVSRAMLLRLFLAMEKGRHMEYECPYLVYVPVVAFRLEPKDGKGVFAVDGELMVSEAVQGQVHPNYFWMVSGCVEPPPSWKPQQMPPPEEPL
Conditions: at 1 µM
MEASURE: inhibition (%)
Give your result in % as a bare value.

-- ask Recorded inhibition of O=C1Nc2ccccc2/C1=C/Nc1ccc(-n2cncn2)cc1 , please.
-- reply -4.72

Next:
-- ask Recorded inhibition of Fc1ccc(-c2c(-c3ccncc3)nc3n2CCS3)cc1 , please.
-- reply 1.66

-- ask Recorded inhibition of CS(=O)(=O)CCNCc1ccc(-c2ccc3ncnc(Nc4ccc(OCc5ccccc5)c(Br)c4)c3c2)o1 , please.
-- reply -1.39

-- ask Recorded inhibition of COc1ccc(-c2ccc3c(NC(=O)C4CC4)n[nH]c3n2)cc1 , please.
-- reply -0.43

-- ask Recorded inhibition of NS(=O)(=O)c1ccc(N/N=C2\C(=O)Nc3ccc(-c4cnco4)cc32)cc1 , please.
-- reply 1.01
